Biological target: 5-hydroxytryptamine receptor 1A (Homo sapiens) (UniProt P08908)
Sequence (P08908 whole entry, looked up): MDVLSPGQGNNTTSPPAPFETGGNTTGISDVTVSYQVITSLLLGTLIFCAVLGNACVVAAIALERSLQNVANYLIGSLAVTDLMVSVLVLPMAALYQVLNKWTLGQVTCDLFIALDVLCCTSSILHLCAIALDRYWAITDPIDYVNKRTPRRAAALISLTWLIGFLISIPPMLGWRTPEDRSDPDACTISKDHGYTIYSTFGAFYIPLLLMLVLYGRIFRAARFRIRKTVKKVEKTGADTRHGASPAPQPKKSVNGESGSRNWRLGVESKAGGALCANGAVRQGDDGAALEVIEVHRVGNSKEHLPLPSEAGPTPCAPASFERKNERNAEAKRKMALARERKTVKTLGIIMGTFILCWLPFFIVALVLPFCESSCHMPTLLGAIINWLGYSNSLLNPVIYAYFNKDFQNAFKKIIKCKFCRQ
Test: agonism at serotonin HTR1A receptor – cell-based, CHO, Ga15 NFAT-bla reporter, primary screen (AID 567);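 further: 0% = DMSO wells and 100% = 5-CT at EC100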
Conditions: CHO 5-HT1a Ga15 NFAT-bla reporter, FRET ratio; at 10 µM; active compounds read high; 0% basal, 100% maximal reference agonist
Hit rate of the full screen: of about 65,000 compounds, about 370 (0.57%) were called active. The list comes from a sample in which actives are over-represented; it also holds close analogues and randomly drawn compounds.
assay_endpoint: activation (%)
Response body: numeric value in %, unit text excluded.

Example results:
- O=c1c2cc3c(=O)n(CC4CCCO4)c(=O)c3cc2c(=O)n1CC1CCCO1 (stereo not drawn): -2.73
- C=C(Br)Cn1c(CCCC)nc2ccccc21: 0.52

Per the record, `N#Cc1cccc(CSc2nnc(CCCO)n2-c2ccccc2)c1` has activation of 77

Per the record, CCOC(=O)C1C(=O)C=C(c2ccc(OC)cc2)CC1c1ccco1 (stereo not drawn) has activation of -1.83
